Molecular target: T1, human CD19 on Raji cells (human, UniProt P15391 20-556)
T1 construct: whole, on cells
T1 sequence (looked up): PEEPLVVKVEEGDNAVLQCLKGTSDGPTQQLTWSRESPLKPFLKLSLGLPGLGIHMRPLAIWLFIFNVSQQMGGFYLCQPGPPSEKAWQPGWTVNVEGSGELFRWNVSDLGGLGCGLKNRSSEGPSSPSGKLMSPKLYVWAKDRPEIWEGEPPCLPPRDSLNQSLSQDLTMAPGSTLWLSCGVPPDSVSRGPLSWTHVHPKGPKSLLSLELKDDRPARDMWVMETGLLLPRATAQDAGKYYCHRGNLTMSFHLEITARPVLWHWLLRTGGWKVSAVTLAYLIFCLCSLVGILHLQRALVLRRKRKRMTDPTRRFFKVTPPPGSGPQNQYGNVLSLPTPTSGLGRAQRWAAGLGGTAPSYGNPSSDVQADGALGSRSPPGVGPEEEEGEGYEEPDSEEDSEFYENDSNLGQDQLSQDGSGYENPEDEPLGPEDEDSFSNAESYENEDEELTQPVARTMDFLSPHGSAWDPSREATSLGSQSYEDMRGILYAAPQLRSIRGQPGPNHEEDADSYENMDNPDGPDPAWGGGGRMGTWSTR
Experiment: FACS on Raji cells
readout-type: Maximum mean fluorescence intensity
Give the value as a plain number.

>>> value_reported("F4.21.2 (antibody, human IgG1, V domains shown, human-murine chimeric antibody, human IgG1) VH: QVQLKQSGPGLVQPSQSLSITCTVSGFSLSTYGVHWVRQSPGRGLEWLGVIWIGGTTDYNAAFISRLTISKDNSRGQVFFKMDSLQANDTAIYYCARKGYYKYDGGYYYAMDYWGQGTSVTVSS VL: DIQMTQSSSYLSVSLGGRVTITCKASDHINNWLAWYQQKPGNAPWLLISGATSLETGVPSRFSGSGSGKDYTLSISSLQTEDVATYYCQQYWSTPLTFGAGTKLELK")
30800

Read the next record carefully.
Inquiry: Indicate the recorded Maximum mean fluorescence intensity value for this binder: F4.58.6 (antibody, human IgG1, V domains shown, human-murine chimeric antibody, human IgG1) VH: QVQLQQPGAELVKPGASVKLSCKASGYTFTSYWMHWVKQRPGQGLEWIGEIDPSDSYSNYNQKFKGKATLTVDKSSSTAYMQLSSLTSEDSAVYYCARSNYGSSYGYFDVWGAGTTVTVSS VL: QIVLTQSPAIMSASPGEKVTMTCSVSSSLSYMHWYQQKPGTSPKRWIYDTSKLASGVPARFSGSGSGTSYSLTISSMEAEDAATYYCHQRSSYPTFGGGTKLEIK
Reply text: 26100
